Hey, just so you know, these numbers are from patent US8871753B2.

target: Recombinant Human Anaplastic Lymphoma Kinase (Homo sapiens, UniProt Q9UM73); construct: purchased Invitrogen, Carlsbad, Calif; assay: ALK HTRF kinase assay; assay type: biochemical; details: Table B1; cells without percent sign
Sequence (Q9UM73 19-1620): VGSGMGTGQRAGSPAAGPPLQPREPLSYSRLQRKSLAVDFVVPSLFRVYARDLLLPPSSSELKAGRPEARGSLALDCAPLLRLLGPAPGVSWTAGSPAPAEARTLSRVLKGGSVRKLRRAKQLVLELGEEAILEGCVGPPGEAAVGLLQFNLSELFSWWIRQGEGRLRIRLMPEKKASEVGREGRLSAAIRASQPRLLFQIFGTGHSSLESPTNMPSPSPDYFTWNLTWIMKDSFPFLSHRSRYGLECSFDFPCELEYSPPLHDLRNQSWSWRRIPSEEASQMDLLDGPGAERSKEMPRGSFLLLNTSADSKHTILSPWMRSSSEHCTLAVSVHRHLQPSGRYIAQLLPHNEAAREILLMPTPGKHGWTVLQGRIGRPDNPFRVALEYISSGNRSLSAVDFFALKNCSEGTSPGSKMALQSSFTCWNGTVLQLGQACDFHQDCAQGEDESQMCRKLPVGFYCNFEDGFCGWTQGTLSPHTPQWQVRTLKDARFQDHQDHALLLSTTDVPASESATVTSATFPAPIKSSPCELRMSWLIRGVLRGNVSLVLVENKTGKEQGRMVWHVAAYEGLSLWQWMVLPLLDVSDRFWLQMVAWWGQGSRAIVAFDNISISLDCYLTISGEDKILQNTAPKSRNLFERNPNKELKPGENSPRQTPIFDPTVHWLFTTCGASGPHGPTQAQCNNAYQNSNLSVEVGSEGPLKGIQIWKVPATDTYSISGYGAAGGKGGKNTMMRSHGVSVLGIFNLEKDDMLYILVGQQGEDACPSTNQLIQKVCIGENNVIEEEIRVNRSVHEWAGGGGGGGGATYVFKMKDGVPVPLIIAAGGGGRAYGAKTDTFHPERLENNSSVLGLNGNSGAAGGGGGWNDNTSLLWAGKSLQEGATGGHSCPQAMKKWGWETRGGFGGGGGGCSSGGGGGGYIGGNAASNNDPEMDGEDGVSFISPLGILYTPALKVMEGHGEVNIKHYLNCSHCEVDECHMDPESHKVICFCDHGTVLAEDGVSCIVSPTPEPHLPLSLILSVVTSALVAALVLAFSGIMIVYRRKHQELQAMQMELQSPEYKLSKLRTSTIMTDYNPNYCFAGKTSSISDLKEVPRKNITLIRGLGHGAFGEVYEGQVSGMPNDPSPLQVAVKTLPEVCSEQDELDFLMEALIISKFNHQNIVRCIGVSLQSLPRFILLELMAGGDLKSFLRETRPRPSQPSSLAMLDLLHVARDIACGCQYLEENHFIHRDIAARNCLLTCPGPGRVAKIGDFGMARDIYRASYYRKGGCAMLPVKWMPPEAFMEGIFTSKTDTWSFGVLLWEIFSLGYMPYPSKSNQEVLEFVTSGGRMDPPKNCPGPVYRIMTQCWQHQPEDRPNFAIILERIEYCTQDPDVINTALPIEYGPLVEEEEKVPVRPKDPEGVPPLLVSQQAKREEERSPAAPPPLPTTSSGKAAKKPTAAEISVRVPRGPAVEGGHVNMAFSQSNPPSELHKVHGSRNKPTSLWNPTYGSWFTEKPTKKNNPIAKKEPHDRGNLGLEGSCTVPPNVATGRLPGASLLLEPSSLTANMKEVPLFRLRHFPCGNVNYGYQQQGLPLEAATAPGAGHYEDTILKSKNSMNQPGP
Where a name gives a salt, the structure may show the parent alone.
Recorded Endpoint: pIC50
Recall that pIC50 is obtained by taking minus log10 of the concentration measured in molar.

O=C(Nc1ccc2cc1CCc1cccc(c1)Nc1ncc(Cl)c(n1)N2)c1ccsc1 [Example B62, trifluoroacetate] : 6.68

So the reported pIC50 for Nc1cc2cc(c1)Nc1nc(ncc1Cl)Nc1cccc(c1)CC2 [Example B21, bis(trifluoroacetate)] , on Recombinant Human Anaplastic Lymphoma Kinase (Homo sapiens, UniProt Q9UM73), turned out to be 5.82

So the reported pIC50 for COC(=O)c1ccc2cc1CCc1cccc(c1)Nc1ncc(Cl)c(n1)N2 [Example B22, trifluoroacetate] , on Recombinant Human Anaplastic Lymphoma Kinase (Homo sapiens, UniProt Q9UM73), turned out to be 5.84
